These data points were gathered from patent US20100310640A1.

target: T1, HLA-DR DRB1*0401 (human); experiment: radioligand inhibition, purified HLA-DR; details: remark: other sources report otherwise
T1 chain 1: not shown
T1 chain 2: not shown
Parameter: IC50. Scope: all listed entries.

[
  {
    "BINDER": "APTISPLNTSYRSGE [CEA.239 peptide 9919.0121]",
    "IC50, µM": 0.295
  },
  {
    "BINDER": "PERLAACGPPPVAPP [Peptide 9019.0179]",
    "IC50, µM": 5.54
  },
  {
    "BINDER": "KLCIYTDNSIRPEEL [Cyclin D1.123]",
    "IC50, µM": 0.09
  },
  {
    "BINDER": "TMNMLGGGGSAGRKP [Peptide 9019.0184]",
    "IC50, µM": 0.791
  }
]
